Target: 5-hydroxytryptamine receptor 2A (Homo sapiens, UniProt P28223); note: assay procedure not described here
Sequence (P28223 whole entry): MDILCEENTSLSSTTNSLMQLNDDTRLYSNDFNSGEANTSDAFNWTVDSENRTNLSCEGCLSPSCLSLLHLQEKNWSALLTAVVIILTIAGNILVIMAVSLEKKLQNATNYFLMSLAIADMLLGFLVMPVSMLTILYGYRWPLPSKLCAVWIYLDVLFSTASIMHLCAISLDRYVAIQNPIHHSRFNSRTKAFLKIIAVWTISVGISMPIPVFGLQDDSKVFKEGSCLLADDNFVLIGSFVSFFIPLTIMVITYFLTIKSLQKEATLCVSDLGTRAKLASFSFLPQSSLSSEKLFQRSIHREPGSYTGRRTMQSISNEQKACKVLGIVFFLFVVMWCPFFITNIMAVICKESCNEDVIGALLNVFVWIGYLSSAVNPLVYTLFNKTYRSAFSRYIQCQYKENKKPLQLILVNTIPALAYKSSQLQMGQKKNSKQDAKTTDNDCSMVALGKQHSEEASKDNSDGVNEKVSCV
Type: functional, cell-based
measurement kind: AC50

# get_value(readout='AC50', item= COc1cc2ncnc(Nc3ccc(F)c(Cl)c3)c2cc1NC(=O)/C=C/CN1CCCCC1 [DACOMITINIB ANHYDROUS] )
> 30 µM

Recorded AC50 for `COc1ccc2nc3cc(Cl)ccc3c(Nc3cc(CN4CCCC4)c(O)c(CN4CCCC4)c3)c2n1` , please?
> 30 µM

Using the record for CC1OC2(CS1)CN1CCC2CC1 (stereo not given) , report its AC50.
> 10 µM

Form field: reported AC50 of `CCOC(=O)C1=C[C@]2(CC)CCCN3CCc4c(n1c1ccccc41)[C@@H]32`
> 30 µM

Field request: AC50 | item: `CC1(C)S[C@@H]2[C@H](NC(=O)[C@H](N)c3ccccc3)C(=O)N2[C@H]1C(=O)OCOC(=O)[C@@H]1N2C(=O)C[C@H]2S(=O)(=O)C1(C)C`
> 30 µM

The origin of these recorded values is ChEMBL document CHEMBL5291721.
